Biological target: Glucocorticoid receptor (Homo sapiens)
Assay: qHTS assay for small molecule antagonists of glucocorticoid receptor signaling (AID 588533);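 note: cells stimulated with 2 nM dexamethasone as agonist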
Conditions: HeLa MMTV-bla, GRE beta-lactamase ratio, antagonist mode, 18 h; series mostly up to 76.8 µM
Description: NIH Chemical Genomics Center [NCGC] U.S. Environmental Protection Agency [EPA] National Institutes of Environmental Health Sciences [NIEHS] National Toxicology Program [NTP] […] NCGC Assay Protocol Summary Using a beta-lactamase reporter-gene under control of glucocorticoid response element (GRE), a cell-based assay [CellSensor MMTV-bla HeLa cell line assay developed by Invitrogen] was used to measure GR ligands signaling. […] Detection; Fluorescence; Envision plate reader
Records with an inconclusive call do not appear. The source made the active and inactive calls. Calls come from the whole dose curve; as a rule, active = well fitted inhibition curve with a large enough effect in the signal ratio, with a control signal flat (not every such curve was filed as active); inconclusive = small, poorly fitted or top-dose-only effect, or effect the other way, or a change in a side signal; inactive = flat fitted curve, though single readings scatter; the % refers to the signal ratio.
Choose the fitting class; nothing outside true (active), false (inactive) is accepted.

A selection of reference data follows.
Compound	Classification
O=C1CCC(N2C(=O)c3ccccc3C2=O)C(=O)N1 (stereo not given)	false
CC(C)(Sc1ccc(CCN(CCCCC2CCCCC2)C(=O)NC2CCCCC2)cc1)C(=O)O	true
O=NN(CCCl)C(=O)NCCCl	false

Inquiry: How did this test come out for C[C@]12CCC(=O)C=C1CC[C@@H]1[C@@H]2[C@@H](O)C[C@@]2(C)[C@H]1CC[C@]2(O)C(=O)CO ?
Reply text: false

Inquiry: How did this test come out for CCCC(CCC)C(=O)O ?
Reply text: false

---

test system: JCK; test: qHTS profiling for inhibitors of Plasmodium falciparum proliferation (AID 504749); note: nearly all actives have a fitted effect of over 60% in size; conditions: P. falciparum in erythrocytes, SYBR Green DNA, 72 h; series mostly up to 28.7 µM
Inconclusive results are not listed. Activity calls are given as the source filed them. Calls follow the shape of the dose curve; as a rule, active = well fitted inhibition curve with a large enough effect; inconclusive = small, poorly fitted or top-dose-only effect; inactive = flat fitted curve, though single readings scatter.
Choose the fitting class; nothing outside true (1) (active), false (0) (inactive) is accepted.

A selection of reference data follows.
Compound	Classification
O=C1CCc2cc(OCCCCc3nnnn3C3CCCCC3)ccc2N1	false (0)
C#Cc1cccc(Nc2ncnc3cc(OCCOC)c(OCCOC)cc23)c1	false (0)
Cc1ccc(N(CC2=NCCN2)c2cccc(O)c2)cc1	false (0)
CCCCNc1cc(C(=O)O)cc(S(N)(=O)=O)c1Oc1ccccc1	false (0)
CNC[C@H](O)c1cccc(O)c1	false (0)

Inquiry: How did this test come out for Nc1nc2ccc(OC(F)(F)F)cc2s1 ?
Reply text: false (0)

Inquiry: How did this test come out for O=C1CCC(N2C(=O)c3ccccc3C2=O)C(=O)N1 (stereo not drawn) ?
Reply text: false (0)

Inquiry: How did this test come out for NC(=O)c1cnccn1 ?
Reply text: false (0)

Inquiry: How did this test come out for C1COC(NC(C2CC2)C2CC2)=N1 ?
Reply text: false (0)

Inquiry: How did this test come out for NS(=O)(=O)c1cc2c(cc1Cl)NC=NS2(=O)=O ?
Reply text: false (0)

Inquiry: How did this test come out for O=c1n(CCCN2CCN(c3cccc(Cl)c3)CC2)nc2ccccn12 ?
Reply text: false (0)

Inquiry: How did this test come out for OC(CN1CCC(Cc2ccc(F)cc2)CC1)c1ccc(Cl)cc1 (stereo not drawn) ?
Reply text: true (1)

Inquiry: How did this test come out for Nc1ccc(S(=O)(=O)Nc2ccnn2-c2ccccc2)cc1 ?
Reply text: false (0)

---

assay: Nrf2 qHTS screen for inhibitors: Validation (AID 493153); conditions: A549 ARE-Fluc reporter, 18-24 h; measured here: cytotoxicity max response
Inconclusive results are not listed.
Readout label: viability change (%)
Give bare numbers, in %.

Consider the following illustrative entries.
Compound	viability change [%]
CCC(C)N(C)C(=O)c1cc2ccccc2c(-c2ccccc2Cl)n1 (stereo not drawn)	-9.44
Nc1ccc(S(=O)(=O)Nc2ccnn2-c2ccccc2)cc1	-5.45
CCn1cc(C(=O)O)c(=O)c2cc(F)c(N3CCNC(C)C3)c(F)c21 (stereo not drawn)	-3.76
Cc1[nH]c(=O)c(C#N)cc1-c1ccncc1	-4.04
N=c1nc(N2CCCCC2)cc(N)n1O	-11.3

Each of the following entries comes with a recorded value; kindly state viability change for each.
1. C[C@]12CCC(=O)C=C1CC[C@@H]1[C@@H]2[C@@H](O)C[C@@]2(C)[C@H]1CC[C@]2(O)C(=O)CO
2. O=c1[nH]cnc2[nH]ncc12
3. CC(C[N+](C)(C)C)OC(N)=O (stereo not drawn)
4. O=c1n(CCCN2CCN(c3cccc(Cl)c3)CC2)nc2ccccn12

Reply text:
1: -7.36; 2: 5.19; 3: -0.659; 4: -3.91

Each of the following entries comes with a recorded value; kindly state viability change for each.
1. CCCC(CCC)C(=O)O
2. Nc1nc2ccc(OC(F)(F)F)cc2s1
3. NC[C@H](O)c1ccc(O)c(O)c1
4. Nc1nc2c(ncn2COCCO)c(=O)[nH]1
5. NC(=O)c1cnccn1

Reply text:
[2.98, -4.99, 3.52, -1.37, -0.821]

Each of the following entries comes with a recorded value; kindly state viability change for each.
1. O=C(O)COCCN1CCN(C(c2ccccc2)c2ccc(Cl)cc2)CC1 (stereo not drawn)
2. Cc1ccc(N(CC2=NCCN2)c2cccc(O)c2)cc1
3. NC(N)=NC(=O)c1nc(Cl)c(N)nc1N
4. CC(C)NCC(O)COc1ccc(COCCOC(C)C)cc1 (stereo not drawn)

Reply text:
1: 1.19; 2: 4.38; 3: -5.66; 4: 3.25

Each of the following entries comes with a recorded value; kindly state viability change for each.
1. CCCCNc1cc(C(=O)O)cc(S(N)(=O)=O)c1Oc1ccccc1
2. NNCCc1ccccc1
3. OC(CN1CCC(Cc2ccc(F)cc2)CC1)c1ccc(Cl)cc1 (stereo not drawn)

Reply text:
1: 10.1; 2: 2.04; 3: -17.6

---

test: Quantitative High-Throughput drug screen in 47 multiple myeloma cell lines against the NCATS MIPE library collection: Karpas620_DSMZ cell viability assay (AID 1918959); details: Karpas620 myeloma viability, CellTiter-Glo ATP luminescence, 48 h; series mostly up to 45.8 µM; note: nearly all actives have a fitted effect of over 30% in size
Inconclusive results are not listed. The source made the active and inactive calls. Calls come from the whole dose curve; as a rule, active = well fitted cell-killing curve with a large enough effect; inconclusive = small, poorly fitted or top-dose-only effect, or effect the other way; inactive = no such curve, though single readings can be large or run the other way.
Choose the fitting class; nothing outside active, inactive is accepted.

Molecule	Classification
S=C(NCc1ccc2c(c1)OCO2)N1CCN(c2ncnc3c2oc2ccccc23)CC1	active

Inquiry: How did this test come out for CC(C)NCC(O)COc1ccc(COCCOC(C)C)cc1 (stereo unspecified) ?
Reply text: inactive

Inquiry: How did this test come out for Cc1cc2c(F)c(Oc3ncnn4cc(OC[C@@H](C)O)c(C)c34)ccc2[nH]1 ?
Reply text: inactive

Inquiry: How did this test come out for O=C1[C@H](Cc2ccc(O)cc2)N2C(=O)CCN(C(=O)NCc3ccccc3)[C@H]2CN1Cc1cccc2ccccc12 ?
Reply text: inactive

Inquiry: How did this test come out for CCCc1nc2c(C)cc(-c3nc4ccccc4n3C)cc2n1Cc1ccc(-c2ccccc2C(=O)O)cc1 ?
Reply text: inactive

Inquiry: How did this test come out for CC1(C)SCCN(S(=O)(=O)c2ccc(OCC#CCO)cc2)[C@@H]1C(=O)NO ?
Reply text: inactive

Inquiry: How did this test come out for Oc1cccc(-c2nc(N3CCOCC3)c3oc4ncccc4c3n2)c1 ?
Reply text: active

Inquiry: How did this test come out for COc1nc(-c2ccc3c(c2)OCO3)n(-c2ccc(NC(=O)CSc3ccccc3)cc2)n1 ?
Reply text: inactive

Inquiry: How did this test come out for N[C@@H]1CONC1=O ?
Reply text: inactive

Inquiry: How did this test come out for Cn1cnc2c(F)c(Nc3ccc(Br)cc3Cl)c(C(=O)NOCCO)cc21 ?
Reply text: active

Inquiry: How did this test come out for CN[C@@H](C)C(=O)N[C@H]1CCCC[C@H]2CC[C@@H](C(=O)N[C@@H](c3ccccc3)c3cn(CCCCc4ccc(CCCCn5cc([C@@H](NC(=O)[C@@H]6CC[C@@H]7CCCC[C@H](NC(=O)[C@H](C)NC)C(=O)N76)c6ccccc6)nn5)cc4)nn3)N2C1=O ?
Reply text: active

Inquiry: How did this test come out for O=C1CCCC2=C1C(c1[nH]ncc1Cl)N=C(Nc1nc3ccccc3o1)N2 (stereo unspecified) ?
Reply text: active

Inquiry: How did this test come out for O=C(Nc1nc2ccccc2n1CCN1CCOCC1)c1cccc([N+](=O)[O-])c1 ?
Reply text: active

Inquiry: How did this test come out for N=c1nc(N2CCCCC2)cc(N)n1O ?
Reply text: inactive

Inquiry: How did this test come out for NCCCC(N)(C(=O)O)C(F)F (stereo unspecified) ?
Reply text: inactive

Inquiry: How did this test come out for Cc1cc2c(C(C)C)c(O)c(O)c(C=O)c2c(O)c1-c1c(C)cc2c(C(C)C)c(O)c(O)c(C=O)c2c1O ?
Reply text: active

---

Biological target: Cytochrome P450 2D6 (Homo sapiens)
Experiment: Cytochrome P450 family 2 subfamily D member 6 (CYP2D6) small molecule antagonists: luciferase biochemical (cell-free) qHTS assay (AID 1645840); note: % is set by controls: 0 for no effect and ±100 for the full control effect; nearly all actives have a fitted effect of over 55% in size
Conditions: P450-Glo CYP2D6 enzyme, luciferin luminescence, 1 h; series mostly up to 57.4 µM
Description: National Center for Advancing Translational Sciences [NCATS] Assay Overview: Cytochrome P450 (CYP) enzymes are membrane-bound hemeproteins that play a key role in metabolism of drugs and xenobiotics. Assaying the effect of chemicals on CYP isozymes is useful to minimize the adverse drug reactions and toxicities in drug development process. […] The luciferin products formed are detected with a luciferin detection reagent, and the amount of light produced is proportional to CYP activity. […]
Records with an inconclusive call do not appear. Active and inactive are the calls of the source. The call rests on the fitted dose curve; in most records, active means well fitted inhibition curve with a large enough effect in the repeat runs; inconclusive means weak or mixed curves; inactive means flat fitted curve, though single readings scatter.
Readout label: outcome

Consider the following illustrative entries.
Compound	Test target	outcome
Cn1cnc2c(F)c(Nc3ccc(Br)cc3Cl)c(C(=O)NOCCO)cc21	Cytochrome P450 2D6 (Homo sapiens)	inactive
CCc1ccc(CCOc2ccc(CC3SC(=O)NC3=O)cc2)nc1 (stereo not drawn)	Cytochrome P450 2D6 (Homo sapiens)	inactive
COc1cccc2cc(-c3nc(C4CCC(C(=O)O)CC4)n4ncnc(N)c34)[nH]c12 (stereo not drawn)	Cytochrome P450 2D6 (Homo sapiens)	inactive
CCC(C)n1ncn(-c2ccc(N3CCN(c4ccc(OC[C@H]5CO[C@](Cn6cncn6)(c6ccc(Cl)cc6Cl)O5)cc4)CC3)cc2)c1=O (stereo partly drawn)	Cytochrome P450 2D6 (Homo sapiens)	inactive
CC(C)(C)NCC(O)c1ccc(O)c(CO)c1 (stereo not drawn)	Cytochrome P450 2D6 (Homo sapiens)	inactive
N#Cc1ccc(C(c2ccc(C#N)cc2)n2cncn2)cc1	Cytochrome P450 2D6 (Homo sapiens)	inactive
CNC[C@H](O)c1cccc(O)c1	Cytochrome P450 2D6 (Homo sapiens)	inactive

Inquiry: Item NC(=O)c1cnccn1 has what recorded outcome?
Reply text: inactive
